Biological target: intracellular GCN2 (phosphorylation of the GCN2 substrate eIF2α) (Homo sapiens, UniProt Q9P2K8)
Sequence (Q9P2K8 whole entry): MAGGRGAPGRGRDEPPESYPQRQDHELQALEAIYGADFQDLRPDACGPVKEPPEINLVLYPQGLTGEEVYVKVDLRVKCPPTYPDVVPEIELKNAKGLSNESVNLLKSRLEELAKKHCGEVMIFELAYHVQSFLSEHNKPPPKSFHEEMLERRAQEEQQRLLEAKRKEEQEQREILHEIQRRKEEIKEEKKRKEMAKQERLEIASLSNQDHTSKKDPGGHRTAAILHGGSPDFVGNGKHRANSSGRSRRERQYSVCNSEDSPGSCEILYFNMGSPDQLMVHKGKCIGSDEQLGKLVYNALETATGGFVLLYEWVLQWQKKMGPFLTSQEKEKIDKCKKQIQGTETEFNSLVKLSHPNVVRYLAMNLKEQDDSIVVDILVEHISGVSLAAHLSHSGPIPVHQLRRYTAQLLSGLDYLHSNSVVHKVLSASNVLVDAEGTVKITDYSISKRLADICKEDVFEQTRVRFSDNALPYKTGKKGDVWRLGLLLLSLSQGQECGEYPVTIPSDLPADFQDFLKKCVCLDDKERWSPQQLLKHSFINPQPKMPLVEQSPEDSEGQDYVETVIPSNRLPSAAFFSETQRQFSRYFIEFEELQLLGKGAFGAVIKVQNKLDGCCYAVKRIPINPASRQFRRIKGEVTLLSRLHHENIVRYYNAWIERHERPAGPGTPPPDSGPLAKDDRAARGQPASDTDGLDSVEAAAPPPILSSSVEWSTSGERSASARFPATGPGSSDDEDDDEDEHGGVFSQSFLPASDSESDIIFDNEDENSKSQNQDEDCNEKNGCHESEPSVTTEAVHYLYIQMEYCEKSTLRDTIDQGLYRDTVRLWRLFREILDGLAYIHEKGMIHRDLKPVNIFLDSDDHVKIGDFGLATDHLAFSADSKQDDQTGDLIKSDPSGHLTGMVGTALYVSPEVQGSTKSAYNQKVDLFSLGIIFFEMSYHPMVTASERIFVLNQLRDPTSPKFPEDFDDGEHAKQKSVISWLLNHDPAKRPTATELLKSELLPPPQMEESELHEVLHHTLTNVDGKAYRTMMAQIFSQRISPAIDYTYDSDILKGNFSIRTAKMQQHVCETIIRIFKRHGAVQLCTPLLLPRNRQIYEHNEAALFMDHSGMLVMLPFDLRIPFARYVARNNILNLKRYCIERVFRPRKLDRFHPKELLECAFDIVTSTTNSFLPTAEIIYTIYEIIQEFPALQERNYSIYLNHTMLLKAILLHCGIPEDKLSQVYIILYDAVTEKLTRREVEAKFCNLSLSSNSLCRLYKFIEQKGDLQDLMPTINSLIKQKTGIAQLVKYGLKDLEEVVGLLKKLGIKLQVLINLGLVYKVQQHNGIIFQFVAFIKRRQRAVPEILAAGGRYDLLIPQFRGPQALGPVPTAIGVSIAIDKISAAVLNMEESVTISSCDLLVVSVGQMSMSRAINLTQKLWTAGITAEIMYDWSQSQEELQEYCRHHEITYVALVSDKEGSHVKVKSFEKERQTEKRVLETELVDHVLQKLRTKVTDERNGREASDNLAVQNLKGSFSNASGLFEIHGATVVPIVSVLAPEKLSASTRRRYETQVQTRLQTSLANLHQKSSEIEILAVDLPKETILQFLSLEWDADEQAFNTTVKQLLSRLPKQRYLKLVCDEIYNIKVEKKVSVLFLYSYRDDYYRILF
Assay: GCN2 cellular inhibition assay (AlphaScreen SureFire P-eIF2α Ser51, borrelidin-treated U2OS cells)
Assay type: cell-based
Conditions: compounds of Formula II; biomarker assay, phosphorylated eIF2α Ser51 in borrelidin-treated U2OS cells
pIC50: −log10 of the molar value.
pIC50 values, listed per item

>>> result("CC(=O)N1CCN(c2cc(-c3cnc4ccc(-c5cccnc5)nn34)ccn2)CC1 [II-737]")
"< 5.30"
>>> result("Cc1ncc(-c2cnc3ccc(C(F)F)nn23)cc1N1CCCC(CNS(C)(=O)=O)C1 (stereo not drawn) [II-49]")
"5.30 to 6.30"
>>> result("Cc1cnc(-c2cnc3ccc(C(F)F)nn23)cc1N1CCCC(CNS(C)(=O)=O)C1 (stereo not drawn) [II-53]")
"5.30 to 6.30"

In: Reported pIC50, compound CS(=O)(=O)NCC1CC(O)CN(c2cc(-c3cnc4ccc(C(F)F)nn34)ccn2)C1 (stereo not drawn) [II-39] : ____
Out: 5.30 to 6.30

In: Requested read-out: pIC50. Entry: C[C@@H]1COCCN1c1cc(-c2cnc3ccc(C(F)F)nn23)ncn1 [II-324]
Out: < 5.30

In: // query pIC50 value for entry CC(=O)N1CCN(c2cccc(-c3cnc4ccc(C(F)F)nn34)c2)CC1 [II-150]
Out: 5.30 to 6.30

In: Recorded pIC50 for NS(=O)(=O)NCC1CCCN(c2cc(-c3cnc4ccc(C(F)F)nn34)ncn2)C1 (single isomer, unassigned) [II-277] , please?
Out: 5.30 to 6.30

In: Which value of pIC50 has been reported for C[C@@H]1CC(N=S(C)(C)=O)CN(c2cc(-c3cnc4ccc(C(F)F)nn34)ncn2)C1 (single isomer, unassigned) [II-541] in the records?
Out: > 6.30

----------
pIC50 listing for selected compounds.
Biological target: intracellular GCN2 (phosphorylation of the GCN2 substrate eIF2α) (Homo sapiens, UniProt Q9P2K8)
Experiment: GCN2 cellular inhibition assay (AlphaScreen SureFire P-eIF2α Ser51, borrelidin-treated U2OS cells)
Type: cell-based
Conditions: compounds of Formula II; biomarker assay, phosphorylated eIF2α Ser51 in borrelidin-treated U2OS cells
pIC50: −log10 of the molar value.

Examples with answers:
>>> result("CC1C(CNS(C)(=O)=O)NCCN1c1cc(-c2cnc3ccc(C(F)(F)F)nn23)ncn1 (stereo not shown)")
"> 6.30"
>>> result("CC1CN(c2cc(-c3cnc4ccc(C(F)F)nn34)ncn2)CC(CNS(C)(=O)=O)C1(F)F (stereo not shown) [II-35]")
"5.30 to 6.30"

In: Which pIC50 value is on record for CS(=O)(=O)N1CC2OCCN(c3cc(-c4cnc5ccc(C(F)F)nn45)ncn3)C2C1 (stereo not shown) ?
Out: < 5.30

In: Quick one: pIC50 for O=C1NCC2CCN(c3cc(-c4cnc5ccc(C(F)F)nn45)ncn3)CC12 (stereo not shown) ?
Out: < 5.30

In: # lookup: pIC50 of CC1CN(c2ccnc(-c3cnc4ccc(C(F)F)nn34)c2)CC(CNS(C)(=O)=O)C1(F)F (stereo not shown)
Out: > 6.30

In: Which pIC50 value belongs to `CN(C[C@@H]1CN(c2cc(-c3cnc4ccc(C(F)F)nn34)ncn2)CCO1)S(C)(=O)=O` ?
Out: 5.30 to 6.30

In: Value lookup for pIC50; key = CC1CC(C(=O)O)C(C)N(c2cc(-c3cnc4ccc(C(F)(F)F)nn34)ncn2)C1 (stereo not shown)
Out: 5.30 to 6.30

In: Which pIC50 value is on record for C[S+]([O-])CC1CCCN(c2cc(-c3cnc4ccc(C(F)F)nn34)ccn2)C1 (stereo not shown) ?
Out: 5.30 to 6.30

In: // pIC50 lookup, key: `CC(F)(F)c1ccc2ncc(-c3cc(N4CCO[C@H](CNS(C)(=O)=O)C4)ncn3)n2n1`
Out: < 5.30
